Entry source: ChEMBL document CHEMBL1139238

observed_property: IC50 (µM)
Could you give me the number in µM? Just the number is fine.

INPUT: Specify the recorded IC50 for COc1ccc([C@@H]2Oc3cc(OC)c(O)c(OC)c3C(=O)[C@@H]2O)cc1OC (racemic) , system: Xanthine dehydrogenase/oxidase (Rattus norvegicus) (UniProt P22985).
Sequence (P22985 whole entry, looked up): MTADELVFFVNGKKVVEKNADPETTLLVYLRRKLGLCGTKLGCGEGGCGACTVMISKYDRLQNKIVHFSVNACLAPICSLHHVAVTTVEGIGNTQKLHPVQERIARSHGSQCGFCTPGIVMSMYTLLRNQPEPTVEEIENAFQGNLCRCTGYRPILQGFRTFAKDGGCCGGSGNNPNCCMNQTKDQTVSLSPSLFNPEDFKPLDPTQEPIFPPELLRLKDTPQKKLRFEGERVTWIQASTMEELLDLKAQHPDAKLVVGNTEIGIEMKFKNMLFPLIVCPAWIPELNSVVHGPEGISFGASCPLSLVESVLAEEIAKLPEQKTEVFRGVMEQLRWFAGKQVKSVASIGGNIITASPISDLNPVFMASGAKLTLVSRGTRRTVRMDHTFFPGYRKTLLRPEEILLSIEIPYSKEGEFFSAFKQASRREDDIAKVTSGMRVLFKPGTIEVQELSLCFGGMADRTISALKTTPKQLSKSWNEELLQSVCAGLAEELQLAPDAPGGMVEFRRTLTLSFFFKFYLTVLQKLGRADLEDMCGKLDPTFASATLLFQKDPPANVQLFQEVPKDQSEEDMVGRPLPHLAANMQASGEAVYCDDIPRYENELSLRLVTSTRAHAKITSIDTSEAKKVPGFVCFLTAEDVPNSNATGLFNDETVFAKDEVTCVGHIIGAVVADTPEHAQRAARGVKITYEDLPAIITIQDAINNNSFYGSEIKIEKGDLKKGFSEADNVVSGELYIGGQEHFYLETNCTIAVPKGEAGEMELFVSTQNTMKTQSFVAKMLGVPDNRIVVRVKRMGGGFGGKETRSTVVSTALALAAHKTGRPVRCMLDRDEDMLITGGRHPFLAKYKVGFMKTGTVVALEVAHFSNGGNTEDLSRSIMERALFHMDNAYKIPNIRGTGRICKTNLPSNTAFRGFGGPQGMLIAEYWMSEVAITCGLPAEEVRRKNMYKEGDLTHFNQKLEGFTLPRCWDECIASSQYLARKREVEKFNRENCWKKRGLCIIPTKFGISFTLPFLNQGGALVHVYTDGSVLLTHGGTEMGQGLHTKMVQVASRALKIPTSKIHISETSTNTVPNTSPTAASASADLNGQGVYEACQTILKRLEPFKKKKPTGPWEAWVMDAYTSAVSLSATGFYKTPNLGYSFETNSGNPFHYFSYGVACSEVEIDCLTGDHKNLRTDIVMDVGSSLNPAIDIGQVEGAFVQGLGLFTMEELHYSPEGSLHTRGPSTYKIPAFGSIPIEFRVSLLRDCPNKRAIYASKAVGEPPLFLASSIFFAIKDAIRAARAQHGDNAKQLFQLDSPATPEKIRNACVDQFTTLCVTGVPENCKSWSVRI
OUTPUT: 16

INPUT: Specify the recorded IC50 for COc1cc2c(c(OC)c1OC)C(=O)[C@H](O)[C@@H](c1ccc(O)c(O)c1)O2 (racemic) , system: Xanthine dehydrogenase/oxidase (Rattus norvegicus) (UniProt P22985).
OUTPUT: 96.7

* * *

procedure_text: Antioxidant activity assessed as superoxide radical scavenging activity by spectrophotometry
Type: functional
For each of the compounds below, state its EC50.
Could you give me the number in µM? Just the number is fine.

INPUT: Read off the recorded EC50 for O=c1c(O)c(-c2ccc(O)c(O)c2)oc2cc(O)cc(O)c12
OUTPUT: 40.6

INPUT: Read off the recorded EC50 for COc1ccc([C@@H]2Oc3cc(OC)c(O)c(OC)c3C(=O)[C@@H]2O)cc1OC (racemic)
OUTPUT: 50

INPUT: Read off the recorded EC50 for O=C1O[C@H]([C@@H](O)CO)C(O)=C1O
OUTPUT: 256

INPUT: Read off the recorded EC50 for COc1cc2c(c(OC)c1OC)C(=O)[C@H](O)[C@H](c1ccc3c(c1)OCO3)O2 (racemic)
OUTPUT: 80.3

INPUT: Read off the recorded EC50 for COc1cc([C@@H]2Oc3cc(OC)c(O)c(OC)c3C(=O)[C@@H]2O)ccc1O (racemic)
OUTPUT: 97.2

INPUT: Read off the recorded EC50 for COc1cc2c(c(OC)c1OC)C(=O)[C@H](O)[C@H](c1ccccc1O)O2 (racemic)
OUTPUT: 164

INPUT: Read off the recorded EC50 for COc1cc([C@@H]2Oc3cc(OC)c(OC)c(OC)c3C(=O)[C@@H]2O)cc(OC)c1O (racemic)
OUTPUT: 55.5

INPUT: Read off the recorded EC50 for COc1cc([C@H]2Oc3cc(OC)c(OC)c(OC)c3C(=O)[C@@H]2O)ccc1O (racemic)
OUTPUT: 97.1

INPUT: Read off the recorded EC50 for COc1cc2c(c(OC)c1OC)C(=O)[C@H](O)[C@@H](c1ccc(O)c(O)c1)O2 (racemic)
OUTPUT: 100

INPUT: Read off the recorded EC50 for COc1ccc([C@H]2Oc3cc(OC)c(OC)c(OC)c3C(=O)[C@@H]2O)cc1O (racemic)
OUTPUT: 112

INPUT: Read off the recorded EC50 for COc1cc2c(c(OC)c1O)C(=O)[C@H](O)[C@H](c1ccc3c(c1)OCO3)O2 (racemic)
OUTPUT: 93.6

* * *

For each of the compounds below, state its Activity.
study_target: Xanthine dehydrogenase/oxidase (Rattus norvegicus)
procedure_text: Inhibition of xanthine oxidase assessed as formation of formazan after 2 hrs by spectrophotometry
Design: concentration or dose not given beside the values
Could you give me the number in %? Just the number is fine.

INPUT: Read off the recorded Activity for COc1cc2c(c(OC)c1OC)C(=O)[C@H](O)[C@@H](c1ccc(O)c(O)c1)O2 (racemic)
OUTPUT: 58.9

INPUT: Read off the recorded Activity for COc1cc2c(c(OC)c1OC)C(=O)[C@H](O)[C@@H](c1ccc(O)cc1)O2 (racemic)
OUTPUT: 0.2

INPUT: Read off the recorded Activity for COc1ccc([C@@H]2Oc3cc(OC)c(OC)c(OC)c3C(=O)[C@@H]2O)cc1 (racemic)
OUTPUT: 24.9

INPUT: Read off the recorded Activity for COc1cc2c(c(OC)c1O)C(=O)[C@H](O)[C@@H](c1ccc(O)cc1)O2 (racemic)
OUTPUT: 19.8

INPUT: Read off the recorded Activity for COc1cc2c(c(OC)c1OC)C(=O)[C@H](O)[C@H](c1ccc3c(c1)OCO3)O2 (racemic)
OUTPUT: 0.8

INPUT: Read off the recorded Activity for COc1cc([C@@H]2Oc3cc(OC)c(OC)c(OC)c3C(=O)[C@@H]2O)cc(OC)c1OC (racemic)
OUTPUT: 28.9

INPUT: Read off the recorded Activity for COc1ccc([C@H]2Oc3cc(OC)c(O)c(OC)c3C(=O)[C@@H]2O)cc1 (racemic)
OUTPUT: 21.1

INPUT: Read off the recorded Activity for COc1cc2c(c(OC)c1O)C(=O)[C@H](O)[C@H](c1ccc3c(c1)OCO3)O2 (racemic)
OUTPUT: 12.5
